System: IL-4 stimulated CD23 upregulation in human Ramos B cells (JAK-1/JAK-3, Stat-6)
Assay: Assay for Ramos B-Cell Line Stimulated with IL-4 (CD23 upregulation, FACS)
Type: cell-based
Conditions: Table III Example 3
Method: One means of assaying for such inhibition is detection of the effect of the 2,4-pyrimidinediamine compounds on the upregulation of downstream gene products. […] 20 to 24 hours post stimulation, cells are stained for upregulation of CD23 and analyzed using flow cytometry (FACS). […]
REPORTED_ENDPOINT: pIC50
Hey, just a heads up that pIC50 is the negative log base 10 of the concentration in molar.

The cases that follow already have their pIC50 on record.
COMPOUND	NUMERIC_RESULT
Cc1cnc(Nc2ccc(S(N)(=O)=O)cc2)nc1Nc1ccc2c(c1)CN(S(=O)(=O)C1CC1)C2 [II-9]	6.93
COCCNS(=O)(=O)c1cc(Nc2ncc(C)c(Nc3ccc(CNS(=O)(=O)C4CC4)cc3)n2)ccc1C [Compound I-190]	7.14
CCC(=O)NS(=O)(=O)c1cccc(Nc2ncc(C)c(Nc3cccc(CNS(=O)(=O)C4CC4)c3)n2)c1 [Compound I-136]	5.79

We now examine a further compound.
input: Query (compound): CCS(=O)(=O)NCCc1ccc(Nc2nc(Nc3ccc(S(N)(=O)=O)cc3)ncc2C)cc1 [Compound I-38] ; field requested: pIC50
output: 6.91
